Catalogue of koff values
target: T1, human PD-L1-Fc protein (human, UniProt Q9NZQ7 19-239); assay: BIAcore off rate, unpurified periplasmic extract Fab on PD-L1, pH 6
T1 construct: Bought from R&D Systems; also called immobilised PD-L1-Fc; not shown: Fc part of the bought fusion protein, not described
T1 sequence (Q9NZQ7 19-239 limits assumed): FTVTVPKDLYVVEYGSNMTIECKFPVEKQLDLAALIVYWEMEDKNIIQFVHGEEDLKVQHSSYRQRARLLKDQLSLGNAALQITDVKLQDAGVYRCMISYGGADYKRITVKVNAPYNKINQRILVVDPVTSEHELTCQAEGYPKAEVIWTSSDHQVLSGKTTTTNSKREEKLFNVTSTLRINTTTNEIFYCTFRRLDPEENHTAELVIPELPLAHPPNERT
// note: answer is a bare numeric in s⁻¹

Some solved entries appear below for comparison.
BINDER	TEST READOUT	TEST VALUE
Fab 8D06 (Fab, V domains shown, Purified Fab prepared from IgG with the Pierce kit; also called 8D06 Fab) VH: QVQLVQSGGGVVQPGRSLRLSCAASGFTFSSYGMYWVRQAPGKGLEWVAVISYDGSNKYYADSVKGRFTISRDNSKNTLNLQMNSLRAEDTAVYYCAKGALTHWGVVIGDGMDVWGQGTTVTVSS VL: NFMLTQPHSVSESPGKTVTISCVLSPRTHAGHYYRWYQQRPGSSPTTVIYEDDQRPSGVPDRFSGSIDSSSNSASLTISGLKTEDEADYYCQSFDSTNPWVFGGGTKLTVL	koff	0.000699
Fab 8A04 (Fab, V domains shown, Purified Fab prepared from IgG with the Pierce kit; also called 8A04 Fab) VH: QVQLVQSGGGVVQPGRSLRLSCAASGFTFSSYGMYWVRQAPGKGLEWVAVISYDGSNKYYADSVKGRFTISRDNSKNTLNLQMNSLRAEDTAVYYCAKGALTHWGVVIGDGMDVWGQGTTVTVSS VL: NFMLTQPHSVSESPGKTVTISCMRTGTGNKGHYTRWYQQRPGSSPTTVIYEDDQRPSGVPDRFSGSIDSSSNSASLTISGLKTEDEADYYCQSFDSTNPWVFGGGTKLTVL	koff	0.00131

Input: Note down koff recorded for Fab 8D04 (Fab, V domains shown, Purified Fab prepared from IgG with the Pierce kit; also called 8D04 Fab) VH: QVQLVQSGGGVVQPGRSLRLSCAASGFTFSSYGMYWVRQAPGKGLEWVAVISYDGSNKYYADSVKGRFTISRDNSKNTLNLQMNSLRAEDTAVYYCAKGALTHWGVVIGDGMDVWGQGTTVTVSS VL: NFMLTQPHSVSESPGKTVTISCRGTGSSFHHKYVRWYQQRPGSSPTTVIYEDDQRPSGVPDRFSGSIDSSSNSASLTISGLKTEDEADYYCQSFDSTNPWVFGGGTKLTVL
Output: 0.00283

Entry source: patent US20220356255A1
